Numbers sourced from patent US20200407457A1.

Let's look at some binders and their measured eff. (efficiency %), cytotoxic effect on NCI-H1975 cells.
biological target: TRAILR2 receptor on the surface of human tumor cells (human, UniProt O14763 56-440); test: cell-based or functional assay
Could you give me the number in %? Just the number is fine.

Worked cases, eff. (efficiency %), cytotoxic effect on NCI-H1975 cells given:
INSERT INTO results (binder, numericvalue) VALUES
  ('Zapadcine-1c (antibody, V domains shown, MMAD coupled through linker Py-MAA by thiol bridge coupling, non-cleavable; positions not given) VH: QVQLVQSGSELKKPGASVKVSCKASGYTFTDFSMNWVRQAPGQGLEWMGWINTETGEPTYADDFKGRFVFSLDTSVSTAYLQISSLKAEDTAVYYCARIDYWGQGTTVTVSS VL: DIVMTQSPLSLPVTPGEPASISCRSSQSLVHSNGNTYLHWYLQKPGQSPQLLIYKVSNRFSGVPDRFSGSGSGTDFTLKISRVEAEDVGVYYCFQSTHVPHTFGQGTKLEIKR', 83),
  ('Zaptuzumab (antibody, V domains shown) VH: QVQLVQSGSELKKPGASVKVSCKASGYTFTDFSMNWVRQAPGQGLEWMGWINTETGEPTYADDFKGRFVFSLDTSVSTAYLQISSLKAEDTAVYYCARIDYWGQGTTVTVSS VL: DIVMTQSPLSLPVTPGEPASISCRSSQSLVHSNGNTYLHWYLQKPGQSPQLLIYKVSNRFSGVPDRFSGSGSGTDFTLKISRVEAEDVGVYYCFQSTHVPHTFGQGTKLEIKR', 62.4),
  ('Zapadcine-1a (antibody, V domains shown, MMAD coupled through linker Py-Vc-PAB by thiol (disulfide) bridge coupling, cleavable; positions not given) VH: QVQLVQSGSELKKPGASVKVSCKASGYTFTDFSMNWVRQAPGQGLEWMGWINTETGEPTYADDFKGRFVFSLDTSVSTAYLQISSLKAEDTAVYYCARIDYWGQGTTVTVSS VL: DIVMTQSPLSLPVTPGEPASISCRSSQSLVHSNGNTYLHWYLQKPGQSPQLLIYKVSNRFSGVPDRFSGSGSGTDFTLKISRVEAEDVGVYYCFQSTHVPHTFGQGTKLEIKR', 84.6);

// query Consider the binder Zapadcine-1d (antibody, V domains shown, MMAF coupled through linker Mc-Vc-PAB by thiol conventional coupling, cleavable; positions not given) VH: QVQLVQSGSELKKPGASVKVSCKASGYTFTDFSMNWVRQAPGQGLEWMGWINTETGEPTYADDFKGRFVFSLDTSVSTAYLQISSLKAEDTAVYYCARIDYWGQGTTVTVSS VL: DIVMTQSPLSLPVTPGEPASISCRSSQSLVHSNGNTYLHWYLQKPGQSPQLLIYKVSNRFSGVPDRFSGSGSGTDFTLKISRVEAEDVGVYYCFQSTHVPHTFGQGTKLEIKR and give its measured eff. (efficiency %), cytotoxic effect on NCI-H1975 cells.
// result 68.8
